# assayRemarks: Parent ionizable lipid remaining in liver at 6 h after luciferase mRNA LNP (LC-MS)
# Format: in vivo
# measurementContext: Table 16; 6 h after IV 0.5 mg/kg Luciferase mRNA LNP, female BALB/c mice (n = 4)
Rule: Parent ionizable lipid remaining in liver, Average below 20 nmol/g liver gives MET. Equal to or above 20 nmol/g liver gives NOT MET.

// known answers, use as guide
{"compound": "CCCCCCCCCCC(CCCCC(=O)OCc1cc(CCCCCC)cc(CCCCCC)c1)N(CCCN(C)C)C(=O)CCCCCCCCC (centres unmarked)", "qualitativeLabel": "NOT MET"}
{"compound": "CCCCCCCCCCCCCOC(=O)CCCCC(CCCCCCCCCC)N(CCN(C)C)C(=O)CCCCC(=O)OCC(CCCC)CCCCCC (centres unmarked)", "qualitativeLabel": "NOT MET"}
{"compound": "CCCCCCCCCCCCC(=O)N(CCCN(C)C)C(CCCCCCCCCC)CCCCC(=O)OCc1cc(CCCCCC)cc(CCCCCC)c1 (centres unmarked)", "qualitativeLabel": "NOT MET"}

QUERY: Identify whether the compound CCCCC/C=C\CCCC(CCC/C=C\CCCCC)C(CCC/C=C\CCCCC)OC(=O)CCCCN(C)C (centres unmarked) [Compound 13-B43, reference compound] records Parent ionizable lipid remaining in liver, Average below 20 nmol/g liver.
RESULT: NOT MET

QUERY: Identify whether the compound CCCCC/C=C\CCCN(CCC/C=C\CCCCC)NC(=O)CC(CCCCCCCCC)N(CCCN(C)C)C(=O)CCCCCCCCC (centres unmarked) records Parent ionizable lipid remaining in liver, Average below 20 nmol/g liver.
RESULT: MET

###

# assayRemarks: Particle characteristics of LNPs containing luciferase mRNA and novel ionizable lipids
# Type: physicochemical
# measurementContext: Table 7; luciferase mRNA LNP 1.6:54.6:32.8:10.9
recordedEndpoint: Final Product % EE (%)
// note: answer is a bare numeric in %

Example entries and their recorded answers appear below.
{"molecule": "CCCCCCCCCC(CCCCCCC(F)C(=O)OCCC(CCCCC)CCCCC)N(CCCCCC(F)C(=O)OCCC(CCCCC)CCCCC)C(=O)CCCN(C)C (stereo not drawn)", "valueMeasured": 99}
{"molecule": "CCCCCCCCCCN(C(=O)CCCN(C)C)C(CCCCCCCCC)CCCCCCC(F)(F)C(=O)OCCC(CCCCC)CCCCC (stereo not drawn)", "valueMeasured": 98}
{"molecule": "CCCCCCCCCCON(C(=O)CCCN(C)C)C(CCCCCCCCCC)CCCCCCC(F)(F)C(=O)OCCC(CCCCC)CCCCC (stereo not drawn)", "valueMeasured": 98}
{"molecule": "CCCCCCCCCCN(C(=O)CCCN(C)C)C(CCCCCCCCC)CCCCCCC(F)C(=O)OCCC(CCCCCC)CCCCCC (stereo not drawn)", "valueMeasured": 98}
{"molecule": "CCCCCCCCCCC(CCCCCCCC(=O)OCC(CCCCCC)CCCCCCCC)N(CCCCCCCC(=O)OCC(CCCCCC)CCCCCCCC)C(=O)CCCCN(C)C (stereo not drawn)", "valueMeasured": 99}
{"molecule": "CCCCCCCCCCC(CCCCCCC(F)(F)C(=O)OCCC(CCCCC)CCCCC)N(CCCCCCCC(=O)OCCC(CCCCC)CCCCC)C(=O)CCCN(C)C (stereo not drawn)", "valueMeasured": 98}
{"molecule": "CCCCCCCCCCON(C(=O)CCCN(C)C)C(CCCCCCCCC)CCCCCCC(F)C(=O)OCCC(CCCCC)CCCCC (stereo not drawn)", "valueMeasured": 98}
{"molecule": "CCCCCCCCCCC(CCCCCCCC(=O)OCCC(CCCCC)CCCCC)N(CCCCCCCC(=O)OCCC(CCCCC)CCCCC)C(=O)CCCCN(C)C (stereo not drawn)", "valueMeasured": 99}
{"molecule": "CCCCC/C=C\\CCCC(CCC/C=C\\CCCCC)C(CCC/C=C\\CCCCC)OC(=O)CCCCN(C)C (stereo not drawn) [Compound 13-B43, reference compound]", "valueMeasured": 98}
{"molecule": "CCCCCCCCCCON(C(=O)CCCCN(C)C)C(CCCCCCCCCC)CCCCCC(=O)OCC(CCCCCC)CCCCCCCC (stereo not drawn)", "valueMeasured": 98}

QUERY: Entry under review: CCCCCCCCCC(CCCCCCC(F)C(=O)OCCC(CCCCC)CCCCC)N(CCCCCCCC(=O)OCCC(CCCCC)CCCCC)C(=O)CCCN(C)C (stereo not drawn) . Reported Final Product % EE?
RESULT: 99

QUERY: Entry under review: CCCCCCCCCCN(C(=O)CCCN(C)C)C(CCCCCCCCC)CCCCCCC(F)C(=O)OCC(CCCCCC)CCCCCCCC (stereo not drawn) . Reported Final Product % EE?
RESULT: 99

###

# Tested on: human OTC expression in the liver
# assayRemarks: Dose response of human OTC mRNA LNP, OTC expression in liver (ELISA)
# Type: in vivo
# measurementContext: 3 mg/kg IV, 24 h, male C57BL/6 mice (n = 4)
recordedEndpoint: Human OTC expression

{"molecule": "CCCCCCCCCCC(CCCCCCC(=O)OCC(CCCCCC)CCCCCCCC)N(CCCCCCC(F)(F)C(=O)OCC(CCCCCC)CCCCCCCC)C(=O)CCCN(C)C (stereo not shown)", "Human OTC expression": "11080 ng hOTC/mg protein in liver"}

QUERY: Entry under review: CCCCCCCCCCN(C(=O)CCCN(C)C)C(CCCCCCCCC)CCCCCCC(F)(F)C(=O)OCCC(CCCCCC)CCCCCC (stereo not shown) . Reported Human OTC expression?
RESULT: 10316 ng hOTC/mg protein in liver

QUERY: Entry under review: CCCCC/C=C\CCCC(CCC/C=C\CCCCC)C(CCC/C=C\CCCCC)OC(=O)CCCCN(C)C (stereo not shown) [Compound 13-B43, reference compound] . Reported Human OTC expression?
RESULT: 12413 ng hOTC/mg protein in liver

QUERY: Entry under review: CCCCCCCCCCON(C(=O)CCCN(C)C)C(CCCCCCCCCC)CCCCCCC(=O)OCCC(CCCCC)CCCCC (stereo not shown) . Reported Human OTC expression?
RESULT: 12887 ng hOTC/mg protein in liver

###

The following molecules are shown together with reported Parent ionizable lipid remaining in liver, Average values.
# assayRemarks: Lipid clearance from liver over time after human OTC mRNA LNP (LC-MS)
# Type: in vivo
# measurementContext: 3 h post-dose; IV 0.5 mg/kg human OTC mRNA LNP, male C57BL/6 mice (n = 4)
# Procedure: LNP formulations encapsulating ornithine transcarbamylase mRNA were injected intravenously at the specified dose levels to male C57BL/6 mice (6-8 weeks old). Liver tissues were treated with PBS and homogenized with a FastPrep machine, 3 cycles of 5 m/s×15 s. […] Quantitation of the ionizable lipid was by MS/MS against a calibration curve spiked into appropriately matched blank matrix. […] At various timepoints post-dose, lipid levels were assessed in the liver. […]
// note: answer is a bare numeric in nmol/g liver

{"molecule": "CCCCCCCCCCON(C(=O)CCCN(C)C)C(CCCCCCCCCC)CCCCCCC(=O)OCCC(CCCCC)CCCCC (centres unmarked)", "valueMeasured": 28.99}

QUERY: Entry under review: CCCCCCCCCCC(CCCCCCC(=O)OCCC(CCCCC)CCCCC)N(CCCCCCCC(=O)OCCC(CCCCC)CCCCC)C(=O)CCCN(C)C (centres unmarked) . Reported Parent ionizable lipid remaining in liver, Average?
RESULT: 16.12

QUERY: Entry under review: CCCCCCCCCCN(C(=O)CCCN(C)C)C(CCCCCCCCC)CCCCCCC(F)(F)C(=O)OCCC(CCCCCC)CCCCCC (centres unmarked) . Reported Parent ionizable lipid remaining in liver, Average?
RESULT: 10.91

QUERY: Entry under review: CCCCCCCCCCC(CCCCCCC(=O)OCC(CCCCCC)CCCCCCCC)N(CCCCCCC(F)(F)C(=O)OCC(CCCCCC)CCCCCCCC)C(=O)CCCN(C)C (centres unmarked) . Reported Parent ionizable lipid remaining in liver, Average?
RESULT: 76.20

QUERY: Entry under review: CCCCC/C=C\CCCC(CCC/C=C\CCCCC)C(CCC/C=C\CCCCC)OC(=O)CCCCN(C)C (centres unmarked) [Compound 13-B43, reference compound] . Reported Parent ionizable lipid remaining in liver, Average?
RESULT: 63.61

###

# assayRemarks: Particle characteristics of LNPs containing luciferase mRNA and novel ionizable lipids
# Type: physicochemical
# measurementContext: Table 2; luciferase mRNA LNP 1.6:54.6:32.8:10.9
recordedEndpoint: Final Product Z-avg (nm)
// note: answer is a bare numeric in nm

{"compound": "CCCCCCCCCC(=O)N(CCCN(C)C)C(CCCCCCCCC)CC(=O)NNC(CCCCCCCC)CCCCCCCC (stereo not drawn) [Compound 58]", "Final Product Z-avg (nm)": 81}

QUERY: Entry under review: CCCCCCCCCC(=O)N(CCCN(C)C)C(CCCCCCCCC)CC(=O)NN=C(CCCCCCCC)CCCCCCCC (stereo not drawn) [Compound 55] . Reported Final Product Z-avg?
RESULT: 94

QUERY: Entry under review: CCCCCCCCCCC(CCCC(=O)OCC(CCCCCC)CCCCCCCC)N(CCCN(C)C)C(=O)CCCCCCC(=O)OCC(CCCC)CCCCCC (stereo not drawn) [Compound 25] . Reported Final Product Z-avg?
RESULT: 78

QUERY: Entry under review: CCCCCCCCCC(CC(=O)OCC(CCCCCC)CCCCCCCC)N(CCCN(C)C)C(=O)CCCCC(=O)OCC(CCCC)CCCCCC (stereo not drawn) [Compound 21] . Reported Final Product Z-avg?
RESULT: 77

QUERY: Entry under review: CCCCCCCCCC(=O)N(CCCN(C)C)C(CCCCCCCCC)CCOC(=O)C(F)(CCCCCC)CCCCCCCC (stereo not drawn) [Compound 40] . Reported Final Product Z-avg?
RESULT: 87

QUERY: Entry under review: CCCCC/C=C\CCCC(CCC/C=C\CCCCC)C(CCC/C=C\CCCCC)OC(=O)CCCCN(C)C (stereo not drawn) [Compound 13-B43, reference compound] . Reported Final Product Z-avg?
RESULT: 72

QUERY: Entry under review: CCCCCCCCCC(=O)N(CCCN(C)C)C(CCCCCCCCC)CC(=O)NN(CCCCCCCC)CCCCCCCC (stereo not drawn) [Compound 53] . Reported Final Product Z-avg?
RESULT: 106

QUERY: Entry under review: CCCCCCCCCC(CC(=O)OCC(CCCCCC)CCCCCCCC)N(CCCN(C)C)C(=O)CCCCCCC(=O)OCC(CCCC)CCCCCC (stereo not drawn) [Compound 22] . Reported Final Product Z-avg?
RESULT: 74

QUERY: Entry under review: CCCCC/C=C\CCCC(CCC/C=C\CCCCC)=NNC(=O)CC(CCCCCCCCC)N(CCCN(C)C)C(=O)CCCCCCCCC (stereo not drawn) [Compound 56] . Reported Final Product Z-avg?
RESULT: 97
